tgt: BCAT2 (Homo sapiens, UniProt O15382)
Sequence (O15382 28-392): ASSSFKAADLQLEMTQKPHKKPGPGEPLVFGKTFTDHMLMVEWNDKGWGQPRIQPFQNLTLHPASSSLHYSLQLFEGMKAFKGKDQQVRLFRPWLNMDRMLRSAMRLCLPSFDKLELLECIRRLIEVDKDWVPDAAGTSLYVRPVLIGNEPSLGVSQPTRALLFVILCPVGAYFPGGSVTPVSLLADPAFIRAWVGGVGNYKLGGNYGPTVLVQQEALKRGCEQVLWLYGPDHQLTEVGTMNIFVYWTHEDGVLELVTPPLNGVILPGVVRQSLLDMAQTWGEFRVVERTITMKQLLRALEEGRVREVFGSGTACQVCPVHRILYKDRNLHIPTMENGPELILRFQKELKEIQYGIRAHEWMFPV
test.summary: BCAT2 in vitro cell inhibition using engineered A549 cells (KMV cell assay, 13C6-KMV by LC-MS/MS)
Type: cell-based
Set-up: The result was an engineered A549 cell line that expressed endogenous BCAT2; endogenous in cells; host or cells: A549 cells with MUT and BCAT1 knocked out by CRISPR/CAS9
stated.conditions: average where tested multiple times
readout.kind: IC50

Here's what some known entries look like.
Problem: Lab note: need IC50 with BCAT2 (Homo sapiens, UniProt O15382) for entry O=C(N[C@H]1CCC[C@@H](n2c(-c3ccccc3F)nc3cnc(-c4ccncc4)cc32)C1)c1ncc(Cl)s1 , please look it up.
Solution: 100 to 500 nM

Problem: Again, but for CN1C[C@@H](NC(=O)c2ncc(Cl)s2)C[C@@H](n2c(-c3ccccc3F)nc3cnc(-c4nc[nH]n4)cc32)C1 (single isomer, unassigned)
Solution: > 1000 nM

Problem: How about this compound: O=C(N[C@H]1CCC[C@@H](n2c(-c3ccccc3F)nc3cnc(-c4nc[nH]n4)cc32)[C@@H]1O)c1ncc(Cl)s1
Solution: ≤ 100 nM

Problem: How about O=C(N[C@H]1CCC[C@@H](n2c(-c3ccccc3F)nc3cc(-n4ccnn4)ncc32)C1)c1ncc(C(F)F)s1 ?
Solution: 100 to 500 nM

Others:
Problem: Kindly state the measured IC50 obtained for CS(=O)(=O)N1C[C@H](NC(=O)c2ncc(Cl)s2)C[C@H](n2c(-c3ccccc3F)nc3cnc(-c4nc[nH]n4)cc32)C1 with BCAT2 (Homo sapiens, UniProt O15382).
Solution: ≤ 100 nM

Problem: Then this compound: CO[C@@H]1C[C@H](NC(=O)c2ncc(Cl)s2)C[C@H](n2c(CC(C)C)nc3cnc(-c4nc[nH]n4)cc32)C1 (stereo in doubt)
Solution: > 1000 nM

Problem: Input O=C(N[C@H]1CCC[C@@H](n2c(-c3ccccc3F)nc3cnc(-c4ccccc4)cc32)C1)c1ncc(Cl)s1
Solution: 100 to 500 nM

Problem: CNC(=O)c1cc2nc(-c3ccccc3F)n(C3CCCC(NC(=O)c4ncc(Cl)s4)C3O)c2cn1 (stereo not shown) ?
Solution: ≤ 100 nM

Problem: Also CO[C@H]1C[C@H](NC(=O)c2ncc(Cl)s2)C[C@H](n2c(CC(C)C)nc3cnc(-c4ncccn4)cc32)C1 ?
Solution: ≤ 100 nM

Problem: Likewise for CC(C)Cc1nc2cnc(-c3nc(CO)cs3)cc2n1[C@@H]1CCC[C@H](NC(=O)c2ncc(Cl)s2)C1 ?
Solution: ≤ 100 nM

Problem: C#Cc1cnc(C(=O)N[C@H]2CCC[C@@H](n3c(-c4ncccc4F)nc4cnc(-n5cncn5)cc43)C2)s1 ?
Solution: 100 to 500 nM

Problem: How about Cc1cnn(-c2cc3c(cn2)nc(CC(C)C)n3[C@@H]2CCC[C@H](NC(=O)c3ncc(Cl)s3)[C@H]2O)n1 ?
Solution: ≤ 100 nM

Problem: And O=C(N[C@H]1C[C@H](O)C[C@@H](n2c(-c3ccccc3F)nc3cnc(-n4nccn4)cc32)C1)c1ncc(C(F)F)s1 (single isomer, unassigned) ?
Solution: ≤ 100 nM
